// values below are IC50; system is α-glucosidase from S. cerevisiae E.C. 3.2.1.20 (Saccharomyces cerevisiae, UniProt P53341)
Sequence (P53341 whole entry): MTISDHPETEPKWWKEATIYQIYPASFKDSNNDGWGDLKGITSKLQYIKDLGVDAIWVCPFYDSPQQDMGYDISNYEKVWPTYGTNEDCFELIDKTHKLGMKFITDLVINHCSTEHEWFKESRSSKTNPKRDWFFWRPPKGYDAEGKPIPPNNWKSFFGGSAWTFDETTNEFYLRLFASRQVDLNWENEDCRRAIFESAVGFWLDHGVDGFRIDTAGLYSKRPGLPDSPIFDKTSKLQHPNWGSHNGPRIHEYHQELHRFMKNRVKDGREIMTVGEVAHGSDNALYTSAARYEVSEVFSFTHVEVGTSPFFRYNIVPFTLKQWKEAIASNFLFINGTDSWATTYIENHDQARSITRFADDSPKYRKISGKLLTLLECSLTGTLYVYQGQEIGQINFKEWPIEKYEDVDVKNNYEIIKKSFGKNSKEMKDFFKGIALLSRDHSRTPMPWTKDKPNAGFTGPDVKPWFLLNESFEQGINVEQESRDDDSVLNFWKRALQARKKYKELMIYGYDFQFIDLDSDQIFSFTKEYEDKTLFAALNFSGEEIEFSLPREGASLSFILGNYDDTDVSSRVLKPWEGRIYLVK
Answer format: numeric, µM implied, no suffix.

| SMILES_STRUCTURE | UNIT_ABBREVIATION | REPORTED_RESULT |
| --- | --- | --- |
| O=c1oc2ccccc2c(O)c1C(c1ccc(Cl)c(Cl)c1)c1c(O)c2ccccc2oc1=O | µM | 1.9 |
| O=c1oc2ccccc2c(O)c1C(c1ccc(F)c(Br)c1)c1c(O)c2ccccc2oc1=O | µM | 2.89 |

Provide the documented IC50 with α-glucosidase from S. cerevisiae E.C. 3.2.1.20 (Saccharomyces cerevisiae, UniProt P53341) as the system for O=c1oc2ccccc2c(O)c1C(c1ccc(Cl)cc1Cl)c1c(O)c2ccccc2oc1=O
3.15

Provide the documented IC50 with α-glucosidase from S. cerevisiae E.C. 3.2.1.20 (Saccharomyces cerevisiae, UniProt P53341) as the system for COc1cc(C(c2c(O)c3ccccc3oc2=O)c2c(O)c3ccccc3oc2=O)ccc1O
15.2

Provide the documented IC50 with α-glucosidase from S. cerevisiae E.C. 3.2.1.20 (Saccharomyces cerevisiae, UniProt P53341) as the system for COc1cc(C(c2c(O)c3ccccc3oc2=O)c2c(O)c3ccccc3oc2=O)cc(Br)c1O
5.1

Provide the documented IC50 with α-glucosidase from S. cerevisiae E.C. 3.2.1.20 (Saccharomyces cerevisiae, UniProt P53341) as the system for O=c1oc2ccccc2c(O)c1C(c1cccc(Cl)c1)c1c(O)c2ccccc2oc1=O
6.06

Provide the documented IC50 with α-glucosidase from S. cerevisiae E.C. 3.2.1.20 (Saccharomyces cerevisiae, UniProt P53341) as the system for O=c1oc2ccccc2c(O)c1C(c1ccc(O)c(Br)c1)c1c(O)c2ccccc2oc1=O
4.15

Provide the documented IC50 with α-glucosidase from S. cerevisiae E.C. 3.2.1.20 (Saccharomyces cerevisiae, UniProt P53341) as the system for O=c1oc2ccccc2c(O)c1C(c1ccc(Br)cc1)c1c(O)c2ccccc2oc1=O
2.95

---

Catalogue of Ki readings, one per entry.
# TARGET_OF_ASSAY: UniProtKB P53341
# ASSAY_SUMMARY: Enzyme kinetic study
# Type: biochemical
Answer format: numeric, µM implied, no suffix.

The following compounds have reported results that may help.
| SMILES_STRUCTURE | RECORDED_METRIC | REPORTED_RESULT |
| --- | --- | --- |
| CCCCCCCCOc1c(Br)cc(C(c2c(O)c3ccccc3oc2=O)c2c(O)c3ccccc3oc2=O)cc1Br | Ki | 1.8 |
| CCCCOc1c(Br)cc(C(c2c(O)c3ccccc3oc2=O)c2c(O)c3ccccc3oc2=O)cc1Br | Ki | 3.93 |

Would you kindly look at the next entry?
Consider the compound shown here: COc1c(Br)cc(C(c2c(O)c3ccccc3oc2=O)c2c(O)c3ccccc3oc2=O)cc1Br What is its recorded Ki?
4.81

---

# TARGET_OF_ASSAY: α-glucosidase from S. cerevisiae E.C. 3.2.1.20 (Saccharomyces cerevisiae, UniProt P53341)
RECORDED_METRIC: IC50 (µM)
Answer format: numeric, µM implied, no suffix.

| SMILES_STRUCTURE | IC50, µM |
| --- | --- |
| O=c1oc2ccccc2c(O)c1C(c1ccc(Br)c([N+](=O)[O-])c1)c1c(O)c2ccccc2oc1=O | 3.41 |
| O=c1oc2ccccc2c(O)c1C(c1cccc([N+](=O)[O-])c1)c1c(O)c2ccccc2oc1=O | 14.8 |
| O=c1oc2ccccc2c(O)c1C(c1ccc(Cl)cc1)c1c(O)c2ccccc2oc1=O | 3.19 |
| O=c1oc2ccccc2c(O)c1C(c1ccccc1)c1c(O)c2ccccc2oc1=O | 30.8 |
| COc1ccc(C(c2c(O)c3ccccc3oc2=O)c2c(O)c3ccccc3oc2=O)cc1Br | 3.8 |

Consider the molecule shown here: O=c1oc2ccccc2c(O)c1C(c1ccccc1Cl)c1c(O)c2ccccc2oc1=O What is its recorded IC50?
8.12

Consider the molecule shown here: O=c1oc2ccccc2c(O)c1C(c1cc(Br)c(O)c(Br)c1)c1c(O)c2ccccc2oc1=O What is its recorded IC50?
2.38

Consider the molecule shown here: O=c1oc2ccccc2c(O)c1C(c1ccc(F)cc1)c1c(O)c2ccccc2oc1=O What is its recorded IC50?
12.3

Where do these numbers come from? They come from paper PMC10373460.
